These data points were gathered from patent US20210079074A1.

Please respond with reported MFI for every item in the list.
molecular target: human MS4A4A (human, UniProt Q96JQ5 1-239); assay: FACS, U937-huMS4A4A, 5 ug/ml
// response body must contain only the number

Tell me the measured MFI of anti-MS4A4A antibody 4A-333 (antibody, human IgG1, V domains shown, humanized 4A-21; human IgG1/kappa) VH: QVQLVQSGSELKKPGASVKVSCKASGYIFTSYGLSWVRQAPGQGLEWMGWINTYSGVPTYAQGFTGRFVFSLDTSVSTTYLQISSLKAEDTAVYYCARSLVDYWGQGTLVTVSS VL: DVVMTQSPLSLPVTLGQPASISCKSSQSLLYSDGKTYLSWFQQRPGQSPRRLIYLVSKLDSGVPDRFSGSGSGTDFTLKISRVEAEDVGVYYCWQGIDFHQTFGGGTKVEIK , please.
350

Tell me the measured MFI of anti-MS4A4A antibody 4A-309 (antibody, human IgG1, V domains shown, human IgG1/kappa) VH: QVQLVQSGAEVKKPGASVKVSCKASGYTFTNYWMQWVRQAPGQGLEWMGATHPGHGDTRYAQKFQGRVTLTADKSISTAYMELSRLRSDDTVVYYCAREEVYYGFRSYWYFDVWGRGTLVTVSS VL: EIVLTQSPATLSLSPGERATLSCRASESVDNYGVSFMNWYQQKPGQAPRLLIYGASNQGSGIPARFSGSGSGTDFTLTISSLEPEDFAVYYCQQSKEVPPTFGGGTKVEIK , please.
131

Tell me the measured MFI of anti-MS4A4A antibody 4A-18 (antibody, V domains shown, murine parental; tested as mouse IgG1 or as human IgG1 Fc chimera (hFc), told under assay; also called 4A-18.hFc) VH: QVQLQQPGTELVKPGASVKLSCKASGYTFTSYWIHWVKQRPGQGLEWIGNINPTNGGTNYNERFKSKATLTVDKSSSTAYMQLSSLTSEDSAVYYCARAYYYGSSLFAYWGQGTLVTVSS VL: DIVMTQSQKFMSTTVGDRVSITCKASQNVGTAVAWSQQKPGQSPKLLIYSASYRHTGVPDRFTGSGSGTDFTLTITNMQSEDLADYFCQQYSTYPWTFGGGTKLEIK , please.
382

Tell me the measured MFI of anti-MS4A4A antibody 4A-349 (antibody, human IgG1, V domains shown, humanized 4A-21; human IgG1/kappa) VH: QIQLVQSGAEVKKPGASVKVSCKASGYIFTSYGLSWVRQAPGQGLEWMGWINTYSGVPTYAQKFQGRVTMTLDTSTSTTYMELSSLRSEDTAVYYCARSLVDYWGQGTLVTVSS VL: DIVMTQTPLSLSVTPGQPASISCKSSQSLLYSDGKTYLSWYLQKPGQPPQLLIYLVSKLDSGVPDRFSGSGSGTDFTLKISRVEAEDVGVYYCWQGIDFHQTFGGGTKVEIK , please.
142

Tell me the measured MFI of anti-MS4A4A antibody 4A-302 (antibody, human IgG1, V domains shown, human IgG1/kappa) VH: QVQLVQSGAEVKKPGASVKVSCKASGYTFTNYWMQWVRQAPGQGLEWMGATHPGHGDTRYAQKFQGRVTMTRDTSTSTVYMELSSLRSEDTAVYYCAREEVYYGFRSYWYFDVWGRGTLVTVSS VL: EIVLTQSPATLSLSPGERATLSCRASESVDNYGVSFMNWYQQKPGQAPRLLIYGASNQGSGIPARFSGSGSGTDFTLTISSLEPEDFAVYYCQQSKEVPPTFGGGTKVEIK , please.
113

Tell me the measured MFI of anti-MS4A4A antibody 4A-308 (antibody, human IgG1, V domains shown, human IgG1/kappa) VH: QVQLVQSGAEVKKPGASVKVSCKASGYTFTNYWMQWVRQAPGQGLEWMGATHPGHGDTRYAQKFQGRVTMTADKSTSTAYMELSSLRSEDTAVYYCAREEVYYGFRSYWYFDVWGRGTLVTVSS VL: DIVMTQSPDSLAVSLGERATINCRASESVDNYGVSFMNWYQQKPGQPPKLLIYGASNQGSGVPDRFSGSGSGTDFTLTISSLQAEDVAVYYCQQSKEVPPTFGGGTKVEIK , please.
97.2

Tell me the measured MFI of anti-MS4A4A antibody 4A-332 (antibody, human IgG1, V domains shown, humanized 4A-21; human IgG1/kappa) VH: QVQLVQSGSELKKPGASVKVSCKASGYIFTSYGLSWVRQAPGQGLEWMGWINTYSGVPTYAQGFTGRFVFSLDTSVSTAYLQISSLKAEDTAVYYCARSLVDYWGQGTLVTVSS VL: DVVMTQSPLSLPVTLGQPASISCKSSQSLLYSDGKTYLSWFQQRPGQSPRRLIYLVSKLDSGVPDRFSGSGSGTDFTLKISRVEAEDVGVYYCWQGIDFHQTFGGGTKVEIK , please.
324

Tell me the measured MFI of anti-MS4A4A antibody 4A-346 (antibody, human IgG1, V domains shown, humanized 4A-21; human IgG1/kappa) VH: QVQLVQSGAEVKKPGASVKVSCKASGYIFTSYGLSWVRQAPGQGLEWMGWINTYSGVPTYAQKFQGRVTMTRDTSTSTVYMELSSLRSEDTAVYYCARSLVDYWGQGTLVTVSS VL: DIVMTQTPLSLSVTPGQPASISCKSSQSLLYSDGKTYLSWYLQKPGQPPQLLIYLVSKLDSGVPDRFSGSGSGTDFTLKISRVEAEDVGVYYCWQGIDFHQTFGGGTKVEIK , please.
56.1

Tell me the measured MFI of anti-MS4A4A antibody 4A-337 (antibody, human IgG1, V domains shown, humanized 4A-21; human IgG1/kappa) VH: QVQLVQSGSELKKPGASVKVSCKASGYIFTSYGLSWVRQAPGQGLEWMGWINTYSGVPTYAQGFTGRFVFSLDTSVSTTYLQISSLKAEDTAVYYCARSLVDYWGQGTLVTVSS VL: DIVMTQTPLSSPVTLGQPASISCKSSQSLLYSDGKTYLSWLQQRPGQPPRLLIYLVSKLDSGVPDRFSGSGAGTDFTLKISRVEAEDVGVYYCWQGIDFHQTFGGGTKVEIK , please.
218

Tell me the measured MFI of anti-MS4A4A antibody 4A-335 (antibody, human IgG1, V domains shown, humanized 4A-21; human IgG1/kappa) VH: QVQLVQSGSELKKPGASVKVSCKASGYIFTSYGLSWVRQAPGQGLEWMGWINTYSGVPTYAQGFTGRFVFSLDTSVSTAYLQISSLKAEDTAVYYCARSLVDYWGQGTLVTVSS VL: DVVMTQTPLSSPVTLGQPASISCKSSQSLLYSDGKTYLSWLQQRPGQPPRLLIYLVSKLDSGVPDRFSGSGAGTDFTLKISRVEAEDVGVYYCWQGIDFHQTFGGGTKVEIK , please.
286
